For each record, write down the corresponding IC50.
- Tested on: IMR-32
- METHOD DESCRIPTION: Antiproliferative activity against human IMR32 cells by MTS reduction assay

Req: Write down the reported IC50 (system: IMR-32) of CC(=O)Nc1ccc(-c2cnc(N)nc2-c2c[nH]c3cc(Br)ccc23)cc1
Resp: > 10 µM

Req: Find the measured IC50 of Nc1ccc2[nH]cc(-c3nc(N)ncc3I)c2c1 with IMR-32 as test system.
Resp: > 10 µM

Req: Fill: IC50 (IMR-32) for this molecule CC(=O)c1ccc(-c2cnc(N)nc2-c2c[nH]c3cc(Br)ccc23)cc1
Resp: 0.33 µM

Req: Tell me its IC50 on IMR-32: Nc1ncc(I)c(-c2c[nH]c3cccc([N+](=O)[O-])c23)n1
Resp: > 10 µM

Req: Tell me its IC50 on IMR-32: Nc1nccc(-c2c[nH]c3cccc(Br)c23)n1
Resp: > 25 µM

Req: Give IC50 for this entry on IMR-32: Nc1nccc(-c2c[nH]c3c(Br)cccc23)n1
Resp: 25 µM

Req: State recorded IC50 with IMR-32, entry Nc1nccc(-c2c[nH]c3c([N+](=O)[O-])cccc23)n1 , no comment.
Resp: > 25 µM

Req: # lookup: IMR-32 IC50, key = Nc1ncc(-c2ccc(C(F)(F)F)cc2)c(-c2c[nH]c3ccc(Br)cc23)n1
Resp: > 10 µM

Req: Supply IC50 measured with IMR-32 for Nc1nccc(-c2c[nH]c3ccccc23)n1 .
Resp: > 25 µM

Req: Lab note: record IC50 of Nc1nccc(-c2c[nH]c3ccc(Br)cc23)n1 tested on IMR-32.
Resp: > 25 µM

Req: Provide IC50, system IMR-32, entry Nc1ncc(I)c(-c2c[nH]c3ccccc23)n1
Resp: 10 µM
